Source of measurements: PubChem BioAssay AID179

Test system: CEM cells HIV-1 protection, formazan growth assay
Assay: NCI AIDS Antiviral Assay
pEC50: −log10 of the molar value.
measurement type: pEC50

1) Cc1c2ccccc2nc(CCl)[n+]1[O-] ... < 3.70
2) CNC(=O)N1CN(c2ccccc2)C2(CCN(CCCC(=O)c3ccc(F)cc3)CC2)C1=O ... < 3.70
3) CCOC(=O)Cc1nn2c(=O)cc(C)nc2s1 ... < 3.70
4) COc1ccc(/C=C/C(=O)c2sc(NC(=S)NC(=O)c3ccc(Cl)cc3)nc2C)cc1OC ... < 4.43
5) Cn1nc2c(c1N)Cc1c(nn(C)c1N)-c1ccccc1-2 ... < 3.70
6) Cc1cc(N=Nc2c(O)c3ccccc3[nH]c2=O)ccc1N=Nc1ccc(C(=O)N(C)C)cc1 ... < 3.70
7) O=C(NC1=C(Cl)C(=O)c2ccccc2C1=O)C(=O)C(C(=O)c1ccc2ccccc2c1)C1OC(=O)c2ccccc21 (stereo unspecified) ... < 4.34
8) CC(=O)Nc1cc(OCC(=O)O)ccc1S(=O)(=O)c1ccc(OCC(=O)O)cc1NC(C)=O ... < 3.70
9) CCOC(=O)c1ccc(CS(=O)(=O)c2ccc(Cl)cc2)cc1 ... < 4.26
10) Cc1nn(C(=O)c2ccncc2)c2c1C(c1ccc([N+](=O)[O-])cc1)SC(N)=N2 (stereo unspecified) ... < 3.70
11) COC(=O)[C@H](Cc1ccccc1)NC(=O)N(CCN(CCC#N)C(=O)N[C@H](C(=O)OC)C(C)C)c1ccccc1 ... < 3.70
12) COc1cccc(CCn2c(N)c(-c3cc(Cl)cc(Cl)c3)c3ccc([N+](=O)[O-])cc3c2=O)c1 ... < 3.70
13) CCCC(=O)OCC(COC(=O)CCC)OC(=O)CCC ... < 3.70
14) Oc1ccc(-c2csc(NNC3=NC/C(=C/c4ccc5c(c4)OCO5)S3)n2)cc1O ... < 3.70
15) CC[N+](C)(C)Cc1ccccc1Br ... < 3.70
16) CCC[CH2][Sn]1([CH2]CCC)[O]CC(CN2CCOCC2)[O]1 (stereo unspecified) ... < 5.34
17) COc1cc2nncc(SCc3ccccc3)c2cc1OC ... < 4.07
18) CCOC(=O)c1c(NC(=O)C(F)(F)F)[nH]c(SSc2[nH]c(NC(=O)C(F)(F)F)c(C(=O)OCC)c2C(=O)OCC)c1C(=O)OCC ... < 4.05
19) COc1ccc(-c2oc3ccc(C)cc3c(=O)c2O)cc1 ... < 4.28
20) Cc1ccccc1NC(=O)C(=O)CC(=O)c1sc(Nc2ccccc2[N+](=O)[O-])nc1C ... < 3.70
21) Cc1ccc2nc(NC(=O)C(=O)CC(=O)c3cccc4ccccc34)sc2c1 ... < 4.47

====

Test system: CEM cells HIV-1 protection, formazan growth assay
Assay: NCI AIDS Antiviral Assay
Protocol: The ability of compounds to protect human CEM cells from HIV-1 infection is measured as a screen for new compounds capable of inhibiting the HIV virus. Five concentrations of drug were tested on uninfected and infected cells and cell growth was measured using a soluble formazan assay. […] Compounds that provided at least 50% protection were retested. Compounds that provided at least 50% protection on retest were listed as moderately active. […]
pEC50: −log10 of the molar value. Where a SMILES comes first, the peptide text is derived from it. [ ]: non-standard residue; d: D form. Ava = NCCCCC(=O)O; Mpa = O=C(O)CCS
Quick reference: pEC50 of the listed items.
measurement type: pEC50

1) COc1ccc(/C=C/C(=O)/C=C/c2ccc(OC)cc2OC)c(OC)c1 ... < 3.70
2) CCOC(=O)N1CCN(C(=O)COc2cc3c(O)c4c(O)c(C)c5c(c24)C(=O)C(C)(O/C=C/C(OC)C(C)C(OC(C)=O)C(C)C(O)C(C)C(O)C(C)/C=C/C=C(\C)C(=O)N3)O5)CC1 (stereo not given) ... < 3.70
3) COc1ccc2c(c1)CCN1CCCc3ccc(OC)cc3C21 (stereo not given) ... < 3.70
4) C=C1C(=O)O[C@@H]2C[C@@H](C)[C@@H]3C=CC(=O)[C@@]3(C)[C@@H](OC(=O)CCCC(=O)O[C@H]3[C@@H]4C(=C)C(=O)O[C@@H]4C[C@@H](C)[C@@H]4C=CC(=O)[C@]43C)[C@H]12 ... < 5.24
5) Nc1ccc2c(c1)C(=O)N(O)C2=O ... < 2.85
6) COC(=O)C1CCC(=O)N1C(c1cc(OC)c(OC)c(OC)c1)c1cccc2ccccc12 (stereo not given) ... < 3.70
7) C1CSCCSCCSCCSC1 ... < 4.41
8) C(=C/[PH+](c1ccccc1)c1ccccc1)/[PH+](c1ccccc1)c1ccccc1.[C-]#[O+].[C-]#[O+].[C-]#[O+].[C-]#[O+].[C-]#[O+].[Mo+2].[Mo+4].[c-]1[c-][c-][cH-][c-]1.[c-]1[c-][c-][cH-][c-]1 ... < 5.22
9) NC1=NC2=c3ccccc3=C(c3cnccn3)C2(c2cnccn2)c2ccccc21 (stereo not given) ... < 4.03
10) CC(NC(=O)CCS)C(=O)NC(C)C(=O)NC(Cc1c[nH]c2ccccc12)C(=O)NC(Cc1c[nH]cn1)C(=O)NC(CO)C(=O)NC(Cc1c[nH]c2ccccc12)C(=O)NCCCCC(=O)NC(C)C(=O)NC(CCC(N)=O)C(=O)NC(CCCCN)C(=O)NC(C)C(=O)NC(CCCNC(=N)N)C(=O)NC(CCCCN)C(N)=O (stereo not given) ([Mpa]AAWHSW[Ava]AQKARK-NH2; configuration not given here) ... < 4.70
11) COc1cccc2c1C(CO)N1C(C#N)C3CC(C(=O)O)C(C1C2)N3C (stereo not given) ... < 6.45
12) S=c1cc(-c2ccc3c(c2)OCO3)s[nH]1 ... < 3.70
13) CN1CC2=C(NC(=S)NC2c2ccccc2Cl)/C(=C/c2ccccc2Cl)C1 (stereo not given) ... < 3.70
14) CC1SC(=S)N(c2ccc(Cl)cc2)C1=O (stereo not given) ... < 3.86
15) Cc1cc(Cc2c(F)c(F)c(C(c3cc(C)no3)c3c(F)c(F)c(F)c(F)c3F)c(F)c2F)on1 (stereo not given) ... < 3.70
